biological target: UniProtKB Q9H867; assay: Inhibition of METTL21D (unknown origin) using biotin-labeled histone substrate assessed as residual activity at 50 uM in presence of [3H-Me]SAM by scintillation proximity assay relative to control
Sequence (Q9H867 whole entry): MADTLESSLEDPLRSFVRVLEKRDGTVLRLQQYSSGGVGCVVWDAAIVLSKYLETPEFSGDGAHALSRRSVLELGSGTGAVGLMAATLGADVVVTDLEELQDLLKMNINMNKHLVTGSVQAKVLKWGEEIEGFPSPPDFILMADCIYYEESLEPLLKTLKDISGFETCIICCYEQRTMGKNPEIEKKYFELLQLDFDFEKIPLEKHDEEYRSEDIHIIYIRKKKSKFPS

COMPOUND	Activity (%)
O=C(c1cccc(Br)c1)N1CCC[C@@H]2CNC[C@@H]21	106
O=C(c1cccc(Br)c1)N1CCC2CNCC2C1 (centres undefined)	113
CN1CCC2(CCCN(C(=O)c3cccc(Br)c3)C2)C1 (centres undefined)	98
O=C(c1cccc(Br)c1)N1C[C@@H]2CCN[C@@H]2C1	98
CN1C[C@H]2CCCN(C(=O)c3cccc(Br)c3)[C@H]2C1	102
CN1CCCC2(CCCN(C(=O)c3cccc(Br)c3)C2)C1 (centres undefined)	99
O=C(c1cccc(Br)c1)N1CCC2(CCNCC2)CC1	101
CN1CC[C@H]2CN(C(=O)c3cccc(Br)c3)C[C@H]21	105
CN1CCC[C@@H]2CN(C(=O)c3cccc(Br)c3)C[C@@H]21	100
O=C(c1cccc(Br)c1)N1C[C@H]2CCCN[C@H]2C1	102
O=C(c1cccc(Br)c1)N1CC[C@@H]2[C@@H](CC3CCCCN32)C1 (some centres undefined)	106
C[N+]1(C)CCCCC12CCN(C(=O)c1cccc(Br)c1)CC2	102
O=C(c1cccc(Br)c1)N1C[C@@H]2CC3CCCN3[C@@H]2C1 (some centres undefined)	106
CN1CCCC12CCCN(C(=O)c1cccc(Br)c1)C2 (centres undefined)	99
CN1CCCC12CCN(C(=O)c1cccc(Br)c1)CC2	120
O=C(c1cccc(Br)c1)N1CCCC2(CCCCN2)C1 (centres undefined)	103
CN1CCCC2(CCCN2C(=O)c2cccc(Br)c2)C1 (centres undefined)	104
O=C(c1cccc(Br)c1)N1CCCC2(CCNCC2)C1	106
CN1CCCCC12CCN(C(=O)c1cccc(Br)c1)CC2	99
CN1CCC2(CC1)CCN(C(=O)c1cccc(Br)c1)CC2	105
O=C(c1cccc(Br)c1)N1CC[C@H]2NCC[C@H]2C1	103
CN1CCC2(CCCN2C(=O)c2cccc(Br)c2)CC1	111
CN1CCCCC12CCCN(C(=O)c1cccc(Br)c1)C2 (centres undefined)	91
O=C(c1cccc(Br)c1)N1C[C@@H]2CC3CCCCN3[C@@H]2C1 (some centres undefined)	106

----------
biological target: Histone-lysine N-methyltransferase ASH1L (Homo sapiens); test: Inhibition of ASH1L (unknown origin) using biotin-labeled histone substrate assessed as residual activity at 50 uM in presence of [3H-Me]SAM by scintillation proximity assay relative to control
ENDPOINT: Activity (%)

MOLECULE	ENDPOINT	UNIT_INFO	NUMERIC_RESULT
O=C(c1cccc(Br)c1)N1C[C@@H]2CC3CCCCN3[C@@H]2C1 (some centres not stated)	Activity	%	101
CN1CCCCC12CCN(C(=O)c1cccc(Br)c1)CC2	Activity	%	98
CN1CCCC12CCN(C(=O)c1cccc(Br)c1)CC2	Activity	%	91
O=C(c1cccc(Br)c1)N1C[C@H]2CCCN[C@H]2C1	Activity	%	104
CN1CCC2(CCCN(C(=O)c3cccc(Br)c3)C2)C1 (configuration not stated)	Activity	%	103
CN1CCC[C@@H]2CN(C(=O)c3cccc(Br)c3)C[C@@H]21	Activity	%	99
CN1CCC2(CC1)CCN(C(=O)c1cccc(Br)c1)CC2	Activity	%	97
CN1CCCC12CCCN(C(=O)c1cccc(Br)c1)C2 (configuration not stated)	Activity	%	95
O=C(c1cccc(Br)c1)N1CCCC2(CCNCC2)C1	Activity	%	100
C[N+]1(C)CCCCC12CCN(C(=O)c1cccc(Br)c1)CC2	Activity	%	85
CN1CCC2(CCCN2C(=O)c2cccc(Br)c2)CC1	Activity	%	93
O=C(c1cccc(Br)c1)N1CC[C@H]2NCC[C@H]2C1	Activity	%	96

----------
target: Histone-lysine N-methyltransferase, H3 lysine-79 specific (Homo sapiens); assay: Inhibition of DOT1L (unknown origin) using biotin-labeled histone substrate assessed as residual activity at 50 uM in presence of [3H-Me]SAM by scintillation proximity assay relative to control
// values below are reported Activity

COMPOUND	Activity (%)
O=C(c1cccc(Br)c1)N1C[C@H]2CCCN[C@H]2C1	89
CN1CCC2(CCCN(C(=O)c3cccc(Br)c3)C2)C1 (configuration not stated)	97
CN1CCCC2(CCCN2C(=O)c2cccc(Br)c2)C1 (configuration not stated)	107
O=C(c1cccc(Br)c1)N1C[C@@H]2CC3CCCN3[C@@H]2C1 (some centres not stated)	100
CN1CCCC2(CCCN(C(=O)c3cccc(Br)c3)C2)C1 (configuration not stated)	96
O=C(c1cccc(Br)c1)N1CCC2CNCC2C1 (configuration not stated)	94
O=C(c1cccc(Br)c1)N1C[C@@H]2CCN[C@@H]2C1	94
CN1CC[C@H]2CN(C(=O)c3cccc(Br)c3)C[C@H]21	91
O=C(c1cccc(Br)c1)N1CCCC2(CCCCN2)C1 (configuration not stated)	100
CN1CCCC12CCCN(C(=O)c1cccc(Br)c1)C2 (configuration not stated)	94
CN1CCCCC12CCN(C(=O)c1cccc(Br)c1)CC2	101
O=C(c1cccc(Br)c1)N1CCC2(CCNCC2)CC1	103

----------
target: Histone-lysine N-methyltransferase SETD2 (Homo sapiens); assay: Inhibition of N-terminal His6-tagged human SETD2 (1347 to 1711 residues) expressed in Escherichia coli Rosseta-2(DE3) cells assessed as residual activity at 50 uM using biotinylated-histone H3 (20 to 50 residues) as substrate in presence of [3H-Me]SAM by scintillation proximity assay relative to control
ENDPOINT: Activity (%)

COMPOUND	SYSTEM_NAME	NUMERIC_RESULT
O=C(c1cccc(Br)c1)N1CC[C@H]2NCC[C@H]2C1	Histone-lysine N-methyltransferase SETD2 (Homo sapiens)	107
CN1CCCCC12CCCN(C(=O)c1cccc(Br)c1)C2 (stereo unspecified)	Histone-lysine N-methyltransferase SETD2 (Homo sapiens)	111
CN1CCCC12CCN(C(=O)c1cccc(Br)c1)CC2	Histone-lysine N-methyltransferase SETD2 (Homo sapiens)	108
CN1CCCC2(CCCN(C(=O)c3cccc(Br)c3)C2)C1 (stereo unspecified)	Histone-lysine N-methyltransferase SETD2 (Homo sapiens)	99
CN1CCC[C@@H]2CN(C(=O)c3cccc(Br)c3)C[C@@H]21	Histone-lysine N-methyltransferase SETD2 (Homo sapiens)	104
O=C(c1cccc(Br)c1)N1C[C@@H]2CC3CCCCN3[C@@H]2C1 (stereo partly specified)	Histone-lysine N-methyltransferase SETD2 (Homo sapiens)	105

----------
target: Histone-lysine N-methyltransferase SETDB1 (Homo sapiens); experiment: Inhibition of SETDB1 (unknown origin) using biotin-labeled histone substrate assessed as residual activity at 50 uM in presence of [3H-Me]SAM by scintillation proximity assay relative to control
ENDPOINT: Activity (%)

COMPOUND	NUMERIC_RESULT
CN1CCC[C@@H]2CN(C(=O)c3cccc(Br)c3)C[C@@H]21	101
CN1CCCCC12CCN(C(=O)c1cccc(Br)c1)CC2	108
O=C(c1cccc(Br)c1)N1C[C@@H]2CCN[C@@H]2C1	107
O=C(c1cccc(Br)c1)N1C[C@H]2CCCN[C@H]2C1	111
O=C(c1cccc(Br)c1)N1CCC2CNCC2C1 (centres undefined)	95
O=C(c1cccc(Br)c1)N1CC[C@@H]2[C@@H](CC3CCCCN32)C1 (some centres undefined)	97
O=C(c1cccc(Br)c1)N1CCCC2(CCCCN2)C1 (centres undefined)	108
CN1CCCC2(CCCN(C(=O)c3cccc(Br)c3)C2)C1 (centres undefined)	106
O=C(c1cccc(Br)c1)N1CCC2(CCNCC2)CC1	110
CN1CCCC12CCCN(C(=O)c1cccc(Br)c1)C2 (centres undefined)	98
O=C(c1cccc(Br)c1)N1CCC[C@@H]2CNC[C@@H]21	109
CN1C[C@H]2CCCN(C(=O)c3cccc(Br)c3)[C@H]2C1	101
O=C(c1cccc(Br)c1)N1C[C@@H]2CC3CCCN3[C@@H]2C1 (some centres undefined)	96
CN1CCC2(CC1)CCN(C(=O)c1cccc(Br)c1)CC2	108
O=C(c1cccc(Br)c1)N1CCCC2(CCNCC2)C1	102
CN1CCCC12CCN(C(=O)c1cccc(Br)c1)CC2	101
CN1CCCC2(CCCN2C(=O)c2cccc(Br)c2)C1 (centres undefined)	109
CN1CCC2(CCCN(C(=O)c3cccc(Br)c3)C2)C1 (centres undefined)	94
O=C(c1cccc(Br)c1)N1CC[C@H]2NCC[C@H]2C1	100
CN1CC[C@H]2CN(C(=O)c3cccc(Br)c3)C[C@H]21	102
C[N+]1(C)CCCCC12CCN(C(=O)c1cccc(Br)c1)CC2	97
CN1CCCCC12CCCN(C(=O)c1cccc(Br)c1)C2 (centres undefined)	105
O=C(c1cccc(Br)c1)N1C[C@@H]2CC3CCCCN3[C@@H]2C1 (some centres undefined)	101
CN1CCC2(CCCN2C(=O)c2cccc(Br)c2)CC1	94
